EXPERIMENTAL_TARGET: human ether-à-go-go-related gene (hERG) potassium channel (human);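 also: peak tail current of the secondary pulse compared with the same well before compound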
Sequence (Q12809 whole entry, looked up): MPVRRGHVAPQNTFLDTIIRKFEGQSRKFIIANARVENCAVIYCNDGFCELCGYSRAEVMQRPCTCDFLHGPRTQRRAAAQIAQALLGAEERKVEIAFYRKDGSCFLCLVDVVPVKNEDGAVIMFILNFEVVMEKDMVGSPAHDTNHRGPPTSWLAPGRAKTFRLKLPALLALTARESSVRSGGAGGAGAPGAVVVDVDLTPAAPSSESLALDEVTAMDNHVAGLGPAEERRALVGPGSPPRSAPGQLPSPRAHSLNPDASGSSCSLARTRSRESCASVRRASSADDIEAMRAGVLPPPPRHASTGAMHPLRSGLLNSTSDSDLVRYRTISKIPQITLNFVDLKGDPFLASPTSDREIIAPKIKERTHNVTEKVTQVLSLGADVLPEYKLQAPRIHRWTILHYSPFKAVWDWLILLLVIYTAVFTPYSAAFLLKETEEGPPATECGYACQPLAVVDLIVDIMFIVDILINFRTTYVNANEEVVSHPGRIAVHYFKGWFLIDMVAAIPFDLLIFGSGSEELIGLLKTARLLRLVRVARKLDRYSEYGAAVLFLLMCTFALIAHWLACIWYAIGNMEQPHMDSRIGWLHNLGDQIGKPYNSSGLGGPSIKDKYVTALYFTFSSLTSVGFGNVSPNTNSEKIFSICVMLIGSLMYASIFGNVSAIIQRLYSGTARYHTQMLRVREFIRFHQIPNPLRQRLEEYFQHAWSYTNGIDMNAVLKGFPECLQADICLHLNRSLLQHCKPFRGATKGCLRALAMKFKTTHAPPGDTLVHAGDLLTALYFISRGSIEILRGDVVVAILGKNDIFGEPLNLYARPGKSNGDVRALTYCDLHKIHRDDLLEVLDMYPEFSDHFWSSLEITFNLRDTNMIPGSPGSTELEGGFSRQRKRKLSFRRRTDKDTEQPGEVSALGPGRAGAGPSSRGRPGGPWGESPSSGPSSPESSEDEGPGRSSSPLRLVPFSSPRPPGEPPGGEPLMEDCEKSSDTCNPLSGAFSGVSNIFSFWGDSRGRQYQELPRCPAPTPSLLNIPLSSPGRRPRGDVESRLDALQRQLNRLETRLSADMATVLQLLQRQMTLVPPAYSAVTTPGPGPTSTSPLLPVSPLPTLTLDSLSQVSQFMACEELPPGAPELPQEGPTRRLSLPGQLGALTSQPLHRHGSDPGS
METHOD_DESCRIPTION: primary screen, population patch clamp on CHO cells stably expressing hERG; higher = less effect of the substance
Hit rate of the full screen: of about 310,000 compounds, about 14,000 (4.5%) showed an effect of 50% or more. Effects have a minus sign here. The full list was thinned out, with strong results kept by preference.
VALUE_TYPE: hERG current change (%, negative = inhibition) at 10uM (%)
Give just the number in %; leave the unit off.

Entry "O=C1CSc2ccccc2N1Cc1ccc(F)cc1" : reported hERG current change (%, negative = inhibition) at 10uM = ?
-38.4

Entry O=C(Nc1ccccc1)OC(CN1CCCCC1)C(F)(F)F (centres unmarked) : reported hERG current change (%, negative = inhibition) at 10uM = ?
6.17

Entry "Cc1ccccc1C1=NC(C(F)(F)F)(C(F)(F)F)c2c(n(C)c(=O)n(C)c2=O)N1" : reported hERG current change (%, negative = inhibition) at 10uM = ?
3.5

Entry "COc1ccc(OC)c(S(=O)(=O)N(C)CC(=O)N2CCN(c3ccccc3F)CC2)c1" : reported hERG current change (%, negative = inhibition) at 10uM = ?
-6.63

Entry "Cc1cccc(C)c1C(=NCCN(C)C)c1ccccc1.Cl" : reported hERG current change (%, negative = inhibition) at 10uM = ?
-41.3

Entry "N#C/C(=C(/O)COC(=O)c1cccnc1Cl)c1nc2ccccc2[nH]1" : reported hERG current change (%, negative = inhibition) at 10uM = ?
25.6

Entry "CCN(CC)S(=O)(=O)c1cccc(C(=O)Nc2nncs2)c1" : reported hERG current change (%, negative = inhibition) at 10uM = ?
1.66

Entry O=C(O)c1ccccc1S(=O)(=O)NCC(O)COC1CCCCC1 (centres unmarked) : reported hERG current change (%, negative = inhibition) at 10uM = ?
-2.65

Entry "CC[C@@H]1C(=O)OC[C@@H]1CC1=CN=C[NH+]1C.O=[N+]([O-])[O-]" : reported hERG current change (%, negative = inhibition) at 10uM = ?
15.7

Entry Cc1nn(CC(O)Cn2c3c(c4ccccc42)CCN(C)C3=O)c(C)c1Br (centres unmarked) : reported hERG current change (%, negative = inhibition) at 10uM = ?
-17.5

Entry "CC/C(=N\NC(=O)c1ccc(-c2ccccc2)cc1)C12CC3CC(CC(C3)C1)C2" : reported hERG current change (%, negative = inhibition) at 10uM = ?
0.121

Entry CC(=O)c1cc2c(cc1N(C(=O)Cn1nnc3ccccc31)C(C(=O)NCCC(C)C)c1cccnc1)OCO2 (centres unmarked) : reported hERG current change (%, negative = inhibition) at 10uM = ?
8.92

Entry "CN(Cc1nc(Cc2ccccc2F)no1)CC1(N2CCOCC2)CCCCC1" : reported hERG current change (%, negative = inhibition) at 10uM = ?
-62.8

Entry O=C(c1cccnc1)N1CCC(Oc2ccc(C(=O)N3CCCC(O)C3)cc2)CC1 (centres unmarked) : reported hERG current change (%, negative = inhibition) at 10uM = ?
-0.912

Entry "COc1ccc(Cc2noc(CN(C)CC3(N4CCOCC4)CCCCC3)n2)cc1OC" : reported hERG current change (%, negative = inhibition) at 10uM = ?
-15.5

Entry "O=C(CN1CCCCC1)Nc1ccccc1" : reported hERG current change (%, negative = inhibition) at 10uM = ?
-1.04

Entry "Cc1ccc2nc(NC(=O)Cn3nc(C)c([N+](=O)[O-])c3C)sc2c1" : reported hERG current change (%, negative = inhibition) at 10uM = ?
-23.5

Entry "Nc1ccc2nc(SCC(=O)c3ccccc3)sc2c1" : reported hERG current change (%, negative = inhibition) at 10uM = ?
9.11

Entry "C#CCNC(=O)C1=C[C@@H](c2ccc(Br)cc2)C[C@@H](OCc2ccc(CO)cc2)O1" : reported hERG current change (%, negative = inhibition) at 10uM = ?
16.6

Entry "O=C(O)CN1C(=O)CSc2ccccc21" : reported hERG current change (%, negative = inhibition) at 10uM = ?
-30.6

These measurements were taken from paper PMC4336329.
